Consider the following compounds and their measured inhibition readings.
Test protocol: TNF-a-driven NF-kB reporter inhibitors, primary screen, selectivity assay for NOD1/NOD2 signaling inhibitor project, cell-based, HEK293T NF-kB-Luc, luminescence (AID 1852)
Test settings: TNF-a induced, 14 h, at 4 µM, hits give high values
Hit rate of the full screen: of about 2,500 compounds, about 1,100 (44%) were called active. The set was probably picked from earlier hits. Some of the results follow.
Observation type: inhibition (%)

> print(dat)
                                    compound  observation.type  result.unit  experimental.value
 1  CN(C)S(=O)(=O)N1CCC(Oc2cccc(C(=O)NC3CCCCC3)c2)CC1        inhibition            %                20.4
 2  C[n+]1c2n(c3ccccc31)N=C(c1cc(C(C)(C)C)c(O)c(C(C)(C)C)c1)CS2        inhibition            %                82.3
 3  CCc1nc(SCC(=O)N2CCN(c3ccccc3)CC2)c2oc3ccccc3c2n1        inhibition            %                 0.6
 4  Cc1ccc(OCC(=O)c2cc(C)n(Cc3ccco3)c2C)c([N+](=O)[O-])n1        inhibition            %                65.1
 5  COc1cccc2cc(C(=O)C3=C(O)C(=O)N(c4cc(C)on4)C3c3cccs3)oc12 (stereo not given)        inhibition            %                -0.9
 6  COc1ccccc1N1CCN(c2nc(C)nc3c2oc2ccccc23)CC1        inhibition            %                68.6
 7  CN(C)S(=O)(=O)N1CCC(Oc2cccc(C(=O)NC3CCCCCC3)c2)CC1        inhibition            %                  54
 8  Cc1nc2ccc(NS(=O)(=O)c3ccc(F)c(C)c3)cc2[nH]1        inhibition            %                42.8
 9  CC1CCN(S(=O)(=O)c2nnc(NC(=O)c3cccc(Cl)c3)s2)CC1        inhibition            %                  37
10  C=CC[n+]1c(-c2ccc(C)cc2)csc1Nc1ccc(NC(C)=O)cc1        inhibition            %                99.4

* * *

Test protocol: TNF-a-driven NF-kB reporter inhibitors, primary screen, selectivity assay for NOD1/NOD2 signaling inhibitor project, cell-based, HEK293T NF-kB-Luc, luminescence (AID 1852)
Test settings: TNF-a induced, 14 h, at 4 µM
Hit rate of the full screen: of about 2,500 compounds, about 1,100 (44%) were called active.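 Rule for the calls: active = inhibition above 50% at 4 µM in the single-point screen; inactive = inhibition of 50% or less.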 The set was probably picked from earlier hits. This is one part of the list.
Labels: 1.0 = active, 0.0 = inactive

> print(dat)
                                   compound  label
1  CC1CCc2sc3ncnc(N4CCOCC4)c3c2C1 (centres undefined)    0.0
2      COc1cc(C)c(Br)cc1S(=O)(=O)NCc1ccncc1    0.0
3     O=C(O)CCC(=O)c1ccc2ccc3cccc4ccc1c2c34    1.0
4  COc1ccc(NC(=O)c2cc(N3C(=O)C4C5CCC(C5)C4C3=O)ccc2Cl)c(OC)c1 (centres undefined)    0.0

* * *

Test protocol: TNF-a-driven NF-kB reporter inhibitors, primary screen, selectivity assay for NOD1/NOD2 signaling inhibitor project, cell-based, HEK293T NF-kB-Luc, luminescence (AID 1852)
Test settings: TNF-a induced, 14 h, at 4 µM, hits give high values
Out of some 2,500 compounds screened, about 1,100 (44%) were called active. The set was probably picked from earlier hits. The list shows a part of the results.
Consider the following compounds and their measured inhibition readings.
Observation type: inhibition (%)

> print(dat)
                  compound.structure.string  observation.type  experimental.value
1  Cn1c(=O)[nH]c(=O)c2c1nc([N+](=O)[O-])n2Cc1ccccc1        inhibition                 104
2  Cc1nonc1C(=O)N/N=C/c1ccc([N+](=O)[O-])o1        inhibition                  46
3  O=[N+]([O-])c1ccc(/C=N/N=C/c2ccc([N+](=O)[O-])o2)o1        inhibition                  83

* * *

Test protocol: TNF-a-driven NF-kB reporter inhibitors, primary screen, selectivity assay for NOD1/NOD2 signaling inhibitor project, cell-based, HEK293T NF-kB-Luc, luminescence (AID 1852)
Test settings: TNF-a induced, 14 h, at 4 µM
Hit rate of the full screen: of about 2,500 compounds, about 1,100 (44%) were called active.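 How the source made its calls: active means inhibition above 50% at 4 µM in the single-point screen; inactive means inhibition of 50% or less.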 The set was probably picked from earlier hits. Some of the results follow.
Labels: active, inactive

> print(dat)
                                    compound     label
 1          Brc1cccc(CSc2nnc(-c3ccncc3)o2)c1  inactive
 2  Cc1nc2ccccc2c2oc(C(=O)NCC3COc4ccccc4O3)cc12 (stereo not given)  inactive
 3           Fc1ccc(CSc2nnc(-c3ccncc3)o2)cc1    active
 4  Cc1cc(Cl)c(S(=O)(=O)N2CCCCCC2)cc1OCC(=O)NC1CCCCC1    active
 5  Cc1ccc(NS(=O)(=O)c2ccc(-n3cccn3)cc2)c(C)c1  inactive
 6  Cc1cc(-c2ccc(C)c(S(=O)(=O)N3CCN(c4ccc(F)cc4)CC3)c2)on1  inactive
 7  CCCn1c(NC(=O)c2ccc(Cl)c(S(=O)(=O)N3CCCC3)c2)nc2ccccc21  inactive
 8  CCc1ccc(-c2nc(CSCC(=O)N3CCN(c4ccccn4)CC3)c(C)o2)cc1    active
 9  COC(=O)C1=C(C)N(c2ccc(F)cc2)/C(=C/c2ccc(O)cc2)C1=O  inactive
10    COc1ccc(OC)c(Nc2c3c(nc4ccccc24)CCC3)c1  inactive
11  Cc1nc2ccc(NC(=O)c3cc(S(=O)(=O)N(C)c4ccccc4)ccc3Cl)cc2s1    active
12  CC(Nc1ncnc2ccccc12)c1ccccc1 (stereo not given)    active
13      O=C(Nc1nnc(SCc2ccc(F)cc2)s1)c1ccccn1    active
14  COc1ccc(N(CC(=O)Nc2cccc(N(C)S(C)(=O)=O)c2)S(=O)(=O)c2ccc(C)cc2)cc1  inactive
15  Cc1ccc(C)c(NC(=O)c2ccccc2NS(=O)(=O)c2cc([N+](=O)[O-])ccc2C)c1    active
16  O=C(Nc1nc(-c2ccccn2)cs1)c1cc(Cl)ccc1[N+](=O)[O-]    active
17  Cc1ccc(NS(=O)(=O)c2cc([N+](=O)[O-])ccc2NNC(=S)Nc2cc(C)ccc2C)c(C)c1    active
18          COc1cccc(CNc2ncnc3cc(Cl)ccc23)c1  inactive
19          COc1ccc(-n2nc(C#N)c(Cl)cc2=O)cc1    active
20          COc1cccc(-n2nc(C#N)c(Cl)cc2=O)c1  inactive
21  CC1Cc2cc(S(=O)(=O)N3CCN(c4ccc(Cl)cc4)CC3)ccc2N1C(=O)C1CC1 (stereo not given)  inactive
22  CCN1CCN(S(=O)(=O)c2ccc(Cl)c(C(=O)Nc3cc(Cl)ccc3N3CCOCC3)c2)CC1  inactive
23                Cc1cc2c(NCc3ccccc3)ncnc2s1  inactive
24          O=C(CCl)c1cc2c3c(c1)CC(=O)N3CCC2    active
25        COC(=O)CSc1nnc(-c2sc3ccccc3c2Cl)o1  inactive
26  CCOc1cc(C)c(Cl)cc1S(=O)(=O)n1nnc2ccccc21    active
27  CC(C(=O)Nc1cccc([N+](=O)[O-])c1)N(c1ccccc1)S(C)(=O)=O (stereo not given)  inactive
28           Fc1ccc(CNc2ncnc3cc(Cl)ccc23)cc1  inactive
29          Clc1ccc(CSc2nnc(-c3ccncc3)o2)cc1    active
30  Cc1ccc(NC(=O)CC(=O)c2ccc([N+](=O)[O-])cc2)cc1S(=O)(=O)Nc1cccc(Cl)c1  inactive

* * *

Test protocol: TNF-a-driven NF-kB reporter inhibitors, primary screen, selectivity assay for NOD1/NOD2 signaling inhibitor project, cell-based, HEK293T NF-kB-Luc, luminescence (AID 1852)
Test settings: TNF-a induced, 14 h, at 4 µM, hits give high values
The campaign covered roughly 2,500 compounds. About 1,100 (44%) were called active. So high a share suggests a set chosen from earlier hits. The list shows a part of the results.
If the reported inhibition equals or exceeds 30%, assign 1 (yes). If not, assign 0 (no).

> print(dat)
                   compound.structure.string    label
 1  CCc1ccc(CN(C)C(=O)c2cc(COc3cccc4cnccc34)on2)cc1  1 (yes)
 2        O=C(N/N=C/c1cccc2cccnc12)c1ccccc1O  1 (yes)
 3     Cc1cc(C)nc(SC2=CS(=O)(=O)c3ccccc32)n1   0 (no)
 4  CCc1ccc(-c2cc(C)no2)cc1S(=O)(=O)NCCCN1CCN(c2ccccc2)CC1   0 (no)
 5  O=C(COc1ccc2ccccc2c1)Nc1ccc(Br)cc1C(=O)O   0 (no)
 6        O=C(N/N=C/c1ccccc1O)c1cccc2ccccc12  1 (yes)
 7   Cn1c(SC2=CS(=O)(=O)c3ccccc32)nc2ccccc21  1 (yes)
 8      O=S1(=O)C=C(Sc2nc3ccccc3s2)c2ccccc21  1 (yes)
 9  COc1ccc(C(=O)Nc2sc3c(c2C(=O)NCc2ccco2)CCCC3)cc1OC   0 (no)
10        Nc1ccc(Oc2cccc(Oc3ccc(N)cc3)c2)cc1  1 (yes)
